FYI, the data here is from patent US10047051B2.

study-target: CFTR-R117H (Homo sapiens, UniProt P13569, R117H)
Sequence (P13569 whole entry R117H): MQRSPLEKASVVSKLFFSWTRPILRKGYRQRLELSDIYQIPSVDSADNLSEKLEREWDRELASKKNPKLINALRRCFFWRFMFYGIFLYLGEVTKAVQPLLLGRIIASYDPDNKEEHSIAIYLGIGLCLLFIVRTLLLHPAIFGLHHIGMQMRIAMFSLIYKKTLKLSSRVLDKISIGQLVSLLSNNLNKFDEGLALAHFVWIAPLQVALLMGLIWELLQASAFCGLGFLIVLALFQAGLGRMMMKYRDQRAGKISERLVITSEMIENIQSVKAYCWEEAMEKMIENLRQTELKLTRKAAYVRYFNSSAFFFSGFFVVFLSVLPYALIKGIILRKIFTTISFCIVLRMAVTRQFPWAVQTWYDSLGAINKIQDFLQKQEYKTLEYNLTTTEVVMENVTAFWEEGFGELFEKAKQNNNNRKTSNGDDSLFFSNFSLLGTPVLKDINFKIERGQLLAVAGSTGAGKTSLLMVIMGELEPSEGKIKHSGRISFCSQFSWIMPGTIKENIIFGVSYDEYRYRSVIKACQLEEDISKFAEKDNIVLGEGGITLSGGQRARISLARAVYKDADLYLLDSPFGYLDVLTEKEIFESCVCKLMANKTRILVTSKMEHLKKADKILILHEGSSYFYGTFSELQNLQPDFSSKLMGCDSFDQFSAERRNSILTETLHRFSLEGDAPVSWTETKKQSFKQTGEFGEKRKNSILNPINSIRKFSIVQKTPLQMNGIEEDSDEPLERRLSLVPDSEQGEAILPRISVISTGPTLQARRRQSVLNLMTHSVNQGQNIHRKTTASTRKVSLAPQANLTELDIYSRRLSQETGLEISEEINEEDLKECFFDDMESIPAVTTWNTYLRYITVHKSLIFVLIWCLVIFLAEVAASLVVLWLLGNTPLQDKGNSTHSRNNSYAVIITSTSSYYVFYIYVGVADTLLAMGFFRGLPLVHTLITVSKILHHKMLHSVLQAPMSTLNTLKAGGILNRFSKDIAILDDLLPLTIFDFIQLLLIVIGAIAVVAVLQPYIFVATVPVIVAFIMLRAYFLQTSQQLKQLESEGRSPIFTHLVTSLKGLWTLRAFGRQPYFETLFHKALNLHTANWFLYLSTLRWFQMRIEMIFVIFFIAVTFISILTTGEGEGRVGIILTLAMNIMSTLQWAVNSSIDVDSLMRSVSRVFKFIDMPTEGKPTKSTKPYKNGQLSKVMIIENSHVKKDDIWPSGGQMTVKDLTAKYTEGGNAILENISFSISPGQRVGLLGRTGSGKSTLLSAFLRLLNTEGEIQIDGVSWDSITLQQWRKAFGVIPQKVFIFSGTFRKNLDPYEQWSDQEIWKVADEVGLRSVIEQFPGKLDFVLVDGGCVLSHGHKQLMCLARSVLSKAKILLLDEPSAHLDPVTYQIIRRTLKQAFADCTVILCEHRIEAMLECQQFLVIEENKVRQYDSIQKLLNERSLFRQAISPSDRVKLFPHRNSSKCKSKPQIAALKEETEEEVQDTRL
measurement-description: YFP-halide influx assay for the CFTR-R117H
pEC50: −log10 of the molar value.
assay-metric: pEC50

Past entries and their recorded results:
stdin: # value lookup — system CFTR-R117H (Homo sapiens, UniProt P13569, R117H), readout pEC50, item `C[C@H](O)CNC(=O)c1ncc(S(=O)(=O)c2ccccc2OC(F)(F)F)cc1N`
stdout: 5.98

stdin: # value lookup — system CFTR-R117H (Homo sapiens, UniProt P13569, R117H), readout pEC50, item `CCC1(F)CN(C(=O)c2ncc(S(=O)(=O)c3ccc(OC(F)(F)F)cc3)cc2N)C1`
stdout: 6.24

stdin: # value lookup — system CFTR-R117H (Homo sapiens, UniProt P13569, R117H), readout pEC50, item `Nc1cc(S(=O)(=O)c2ccc(OC(F)(F)F)cc2)cnc1C(=O)Nc1cc[nH]n1`
stdout: 6.81

stdin: # value lookup — system CFTR-R117H (Homo sapiens, UniProt P13569, R117H), readout pEC50, item `CC(C)(O)C1CN(C(=O)c2ncc(S(=O)(=O)c3ccc(C(F)(F)F)cc3)cc2N)C1`
stdout: 7.03

stdin: # value lookup — system CFTR-R117H (Homo sapiens, UniProt P13569, R117H), readout pEC50, item `CCOCC1(CNC(=O)c2ncc(S(=O)(=O)c3ccc(OC(F)(F)F)cc3)cc2N)CCC1`
stdout: 6.21

stdin: # value lookup — system CFTR-R117H (Homo sapiens, UniProt P13569, R117H), readout pEC50, item CC(O)(CNC(=O)c1ncc(S(=O)(=O)c2ccc(F)cc2)cc1N)C(F)(F)F (stereo not shown)
stdout: 6.73

stdin: # value lookup — system CFTR-R117H (Homo sapiens, UniProt P13569, R117H), readout pEC50, item COCC(O)CNC(=O)c1ncc(S(=O)(=O)c2ccccc2OC(F)(F)F)cc1N (stereo not shown)
stdout: 6.39

stdin: # value lookup — system CFTR-R117H (Homo sapiens, UniProt P13569, R117H), readout pEC50, item `Nc1cc(S(=O)(=O)c2ccc(F)cc2)cnc1C(=O)NC[C@H](O)C(F)(F)F`
stdout: 6.50

stdin: # value lookup — system CFTR-R117H (Homo sapiens, UniProt P13569, R117H), readout pEC50, item Nc1cc(S(=O)(=O)c2ccc(OC(F)(F)F)cc2)cnc1C(=O)N[C@@H]1COCC[C@@H]1O (racemic)
stdout: 6.20

stdin: # value lookup — system CFTR-R117H (Homo sapiens, UniProt P13569, R117H), readout pEC50, item Nc1cc(S(=O)(=O)c2ccc(OC(F)(F)F)cc2)cnc1C(=O)NCC(O)C(F)(F)F (stereo not shown)
stdout: 7.19

P. Nc1cc(S(=O)(=O)c2ccccc2OC(F)(F)F)cnc1C(=O)N1CC(O)(C(F)(F)F)C1
Q. Nc1cc(S(=O)(=O)c2ccc(OC(F)(F)F)cc2)cnc1C(=O)N1CC(O)C1
stdin: So which one has the bigger pEC50 here, P or Q ? Record your answer as the label of the chosen record.
stdout: P

* * *

study-target: CFTR ΔF508 mutant (Homo sapiens, UniProt P13569, DEL508-508)
Sequence (P13569 with tags, fused parts or gaps DEL508-508): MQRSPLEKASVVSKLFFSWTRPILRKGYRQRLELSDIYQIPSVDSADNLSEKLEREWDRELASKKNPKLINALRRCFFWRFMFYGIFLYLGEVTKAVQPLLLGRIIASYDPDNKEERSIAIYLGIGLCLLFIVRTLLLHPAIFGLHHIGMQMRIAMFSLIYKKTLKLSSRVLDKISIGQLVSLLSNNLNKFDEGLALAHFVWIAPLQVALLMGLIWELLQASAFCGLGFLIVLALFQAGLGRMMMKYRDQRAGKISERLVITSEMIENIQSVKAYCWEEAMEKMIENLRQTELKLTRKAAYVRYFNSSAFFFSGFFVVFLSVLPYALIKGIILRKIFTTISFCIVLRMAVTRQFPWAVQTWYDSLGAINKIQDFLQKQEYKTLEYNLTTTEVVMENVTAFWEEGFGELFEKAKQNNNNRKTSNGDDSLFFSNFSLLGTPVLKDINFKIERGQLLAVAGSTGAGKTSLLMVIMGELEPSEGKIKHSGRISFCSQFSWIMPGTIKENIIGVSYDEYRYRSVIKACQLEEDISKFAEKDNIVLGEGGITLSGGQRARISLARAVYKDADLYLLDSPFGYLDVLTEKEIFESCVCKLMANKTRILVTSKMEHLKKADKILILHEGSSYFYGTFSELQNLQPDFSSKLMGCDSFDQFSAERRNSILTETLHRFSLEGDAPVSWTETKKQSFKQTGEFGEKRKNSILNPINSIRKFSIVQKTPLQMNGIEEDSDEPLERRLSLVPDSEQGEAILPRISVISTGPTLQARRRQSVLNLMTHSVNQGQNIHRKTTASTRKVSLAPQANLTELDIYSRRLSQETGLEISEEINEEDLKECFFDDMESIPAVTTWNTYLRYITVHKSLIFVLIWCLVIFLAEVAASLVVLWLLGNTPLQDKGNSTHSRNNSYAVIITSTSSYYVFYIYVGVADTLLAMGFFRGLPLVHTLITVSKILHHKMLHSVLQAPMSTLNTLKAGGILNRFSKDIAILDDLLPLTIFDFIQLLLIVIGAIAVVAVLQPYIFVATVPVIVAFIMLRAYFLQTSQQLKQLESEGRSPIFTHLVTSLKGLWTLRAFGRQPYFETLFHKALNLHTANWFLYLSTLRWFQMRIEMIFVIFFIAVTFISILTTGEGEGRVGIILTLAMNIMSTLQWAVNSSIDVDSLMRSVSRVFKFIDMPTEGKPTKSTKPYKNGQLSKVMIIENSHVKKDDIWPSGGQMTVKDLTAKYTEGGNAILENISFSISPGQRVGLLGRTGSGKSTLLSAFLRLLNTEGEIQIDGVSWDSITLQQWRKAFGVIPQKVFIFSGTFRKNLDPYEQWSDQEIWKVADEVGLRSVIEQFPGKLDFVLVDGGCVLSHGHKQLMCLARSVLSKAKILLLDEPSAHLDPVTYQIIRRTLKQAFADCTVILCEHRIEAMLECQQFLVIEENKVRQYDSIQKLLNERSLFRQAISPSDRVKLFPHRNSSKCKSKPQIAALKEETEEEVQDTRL
measurement-description: YFP-halide influx assay for the CFTR-ΔF508 mutation (CFBE41o- cells)
condition-parameters: forskolin 10.67 μM, from (1−F/F0) vs concentration plot
assay-metric: EC50 (nM)

stdin: # EC50 lookup, item `CCNC(=O)CNC(=O)c1ncc(S(=O)(=O)c2ccc(OC(F)(F)F)cc2)cc1N`
stdout: 21.1

stdin: # EC50 lookup, item `CC1(C)CN(C(=O)c2ncc(S(=O)(=O)c3ccc(C(F)(F)F)cc3)cc2N)C1`
stdout: 33.5

stdin: # EC50 lookup, item CC(CO)CNC(=O)c1ncc(S(=O)(=O)c2ccc(OC(F)(F)F)cc2)cc1N (centres unmarked)
stdout: 21.4

I. CC1(C)CN(C(=O)c2ncc(S(=O)(=O)c3ccc(OC(F)(F)F)cc3)cc2N)C1
II. CC(C)(C)CNC(=O)c1ncc(S(=O)(=O)c2ccc(C(F)(F)F)cc2)cc1N
III. Nc1cc(S(=O)(=O)c2ccc(C(F)(F)F)cc2F)cnc1C(=O)N1CC(OC(F)F)C1
IV. Nc1cc(S(=O)(=O)c2ccc(C(F)(F)F)cc2)cnc1C(=O)NCC(F)(F)CO
V. COCC1(C)CN(C(=O)c2ncc(S(=O)(=O)c3ccc(OC(F)(F)F)cc3)cc2N)C1
stdin: Sort the compounds on EC50; start with the lowest figure. I would appreciate it if you listed the labels in the requested order.
stdout: IV, III, I, V, II
(IV: 11.6 nM, III: 21.5 nM, I: 34.3 nM, V: 66.3 nM, II: 157 nM)
